- assay explanation: Permeability in PAMPA
- Format: ADME
- assay conditions: read-out: permeability
measurement label: Papp

[Q] What value of Papp has been reported for the following compound? CC(=O)Nc1cccc(C#Cc2cncnc2Nc2ccc(OCc3cccc(F)c3)c(Cl)c2)c1 [GW703087X]
[A] < 0.3 ×10⁻⁶ cm/s

====

A set of compounds tested on Epidermal growth factor receptor (Homo sapiens, UniProt P00533), with measured IC50:
Answers are plain numbers, in µM.

Take each entry in turn and give its IC50.
1. Nc1cccc(C#Cc2cncnc2Nc2ccc(OCc3cccc(F)c3)c(Cl)c2)c1
2. CS(=O)(=O)CCC(=O)Nc1cccc(C#Cc2cncnc2Nc2ccc(OCc3cccc(F)c3)c(Cl)c2)c1
3. CC(=O)Nc1ccc(C#Cc2cncnc2Nc2ccc(OCc3cccc(F)c3)c(Cl)c2)cc1

[A]
[0.042, 0.05, 25.1]
